target: KRAS WT (Homo sapiens, UniProt P01116+P62937)
Sequence (P01116 1-169 isoform P01116-2 limits assumed): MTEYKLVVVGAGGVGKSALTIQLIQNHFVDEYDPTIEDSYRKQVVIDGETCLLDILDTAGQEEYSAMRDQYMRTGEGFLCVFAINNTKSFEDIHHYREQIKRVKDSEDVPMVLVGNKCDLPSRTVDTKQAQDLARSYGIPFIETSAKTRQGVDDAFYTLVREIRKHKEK
Sequence (P62937 whole entry): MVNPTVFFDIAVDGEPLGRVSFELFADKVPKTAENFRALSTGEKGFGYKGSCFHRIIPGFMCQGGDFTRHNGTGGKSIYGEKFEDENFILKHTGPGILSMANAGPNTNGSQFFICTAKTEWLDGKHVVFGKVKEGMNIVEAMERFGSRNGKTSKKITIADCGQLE
experiment: Disruption of BRAF RBD interaction with Ras (FRET / MOA assay, with Cyclophilin A)
Format: biochemical
experimental context: KRAS WT; read-out: KRAS WT FRET data IC50
Recorded measurements of IC50, one per entry

Answered cases to consult:
CCn1c(-c2cccnc2[C@H](C)OC)c2c3cc(ccc31)-c1csc(n1)C[C@H](NC(=O)[C@H](C(C)C)N(C)C(=O)N1CC(C)(OC)C1)C(=O)N1CCC[C@H](N1)C(=O)OCC(C)(C)C2	100 to 1000 nM
CCn1c(-c2cccnc2[C@H](C)OC)c2c3cc(ccc31)-c1csc(n1)C[C@H](NC(=O)[C@H](C(C)C)N(C)C(=O)N1CC(N3CCCC3)C1)C(=O)N1CCC[C@H](N1)C(=O)OCC(C)(C)C2	100 to 1000 nM
CCn1c(-c2cccnc2[C@H](C)OC)c2c3cc(ccc31)-c1csc(n1)C[C@H](NC(=O)C1CCC1)C(=O)N1CCC[C@H](N1)C(=O)OCC(C)(C)C2	100 to 1000 nM

// next entry
Prompt: Which IC50 is reported for this molecule? C=CC(=O)N1CCC2(C1)CN(C(=O)N(C)[C@H](C(=O)N[C@H]1Cc3nc(cs3)-c3ccc4c(c3)c(c(-c3cccnc3[C@H](C)OC)n4CC(F)(F)F)CC(C)(C)COC(=O)C3CCCN(N3)C1=O)C(C)C)C2 (stereo partly drawn)
Completion: 10 to 100 nM

----------
target: KRAS G13C (Homo sapiens, UniProt P01116+P62937, G13C)
Sequence (P01116 1-169 isoform P01116-2 G13C, one chain of several): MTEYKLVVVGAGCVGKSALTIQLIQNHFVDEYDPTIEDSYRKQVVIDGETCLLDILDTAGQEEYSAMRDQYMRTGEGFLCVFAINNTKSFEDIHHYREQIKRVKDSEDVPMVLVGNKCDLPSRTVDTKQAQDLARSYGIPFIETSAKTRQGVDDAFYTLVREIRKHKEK
experiment: Disruption of BRAF RBD interaction with Ras (FRET / MOA assay, with Cyclophilin A)
Assay type: biochemical
experimental context: KRAS G13C FRET data, IC50
assay readout: IC50

Answered cases to consult:
CCn1c(-c2cccnc2[C@H](C)OC)c2c3cc(ccc31)-c1cc(O)cc(c1)C[C@H](NC(=O)[C@H](C(C)C)N(C)C(=O)C1CCN3CCOCC13)C(=O)N1CCC[C@H](N1)C(=O)OCC(C)(C)C2 (stereo partly drawn)	10 to 100 nM
CCn1c(-c2cccnc2[C@H](C)OC)c2c3cc(ccc31)-c1cc(O)cc(c1)C[C@H](NC(=O)[C@H](C(C)C)N(C)C(=O)C1CCNCC1)C(=O)N1CCC[C@H](N1)C(=O)OCC(C)(C)C2	100 to 1000 nM
CCn1c(-c2cnccc2COC)c2c3cc(ccc31)-c1cc(O)cc(c1)C[C@H](NC(=O)[C@H](C(C)C)N(C)C(=O)CO)C(=O)N1CCC[C@H](N1)C(=O)OCC(C)(C)C2	100 to 1000 nM
CCn1c(-c2cccnc2[C@H](C)OC)c2c3cc(ccc31)-c1csc(n1)C[C@H](NC(=O)N1CCC[C@@H]1COC)C(=O)N1CCC[C@H](N1)C(=O)OCC(C)(C)C2 (atropisomer, axis not shown)	10 to 100 nM

Prompt: Which IC50 is reported for this compound? CCn1c(-c2cnccc2COC)c2c3cc(ccc31)-c1cc(O)cc(c1)C[C@H](NC(=O)[C@H](C(C)C)N(C)C(=O)[C@H]1CCN(C(=O)N(C)C)C1)C(=O)N1CCC[C@H](N1)C(=O)OCC(C)(C)C2
Completion: 1000 to 10000 nM

Prompt: Which IC50 is reported for this compound? CCn1c(-c2cccnc2[C@H](C)OC)c2c3cc(ccc31)-c1csc(n1)C[C@H](NC(=O)[C@H](C(C)C)N(C)C(=O)N1CCC[C@@H](N(C)C)CC1)C(=O)N1CCC[C@H](N1)C(=O)OCC(C)(C)C2
Completion: 100 to 1000 nM
